Provide the reported inhibition at 3 µM of each item.
# Assay Target: wild-type human cardiac sodium channel, hNav1.5 (Homo sapiens, UniProt Q14524)
# Sequence (Q14524 whole entry): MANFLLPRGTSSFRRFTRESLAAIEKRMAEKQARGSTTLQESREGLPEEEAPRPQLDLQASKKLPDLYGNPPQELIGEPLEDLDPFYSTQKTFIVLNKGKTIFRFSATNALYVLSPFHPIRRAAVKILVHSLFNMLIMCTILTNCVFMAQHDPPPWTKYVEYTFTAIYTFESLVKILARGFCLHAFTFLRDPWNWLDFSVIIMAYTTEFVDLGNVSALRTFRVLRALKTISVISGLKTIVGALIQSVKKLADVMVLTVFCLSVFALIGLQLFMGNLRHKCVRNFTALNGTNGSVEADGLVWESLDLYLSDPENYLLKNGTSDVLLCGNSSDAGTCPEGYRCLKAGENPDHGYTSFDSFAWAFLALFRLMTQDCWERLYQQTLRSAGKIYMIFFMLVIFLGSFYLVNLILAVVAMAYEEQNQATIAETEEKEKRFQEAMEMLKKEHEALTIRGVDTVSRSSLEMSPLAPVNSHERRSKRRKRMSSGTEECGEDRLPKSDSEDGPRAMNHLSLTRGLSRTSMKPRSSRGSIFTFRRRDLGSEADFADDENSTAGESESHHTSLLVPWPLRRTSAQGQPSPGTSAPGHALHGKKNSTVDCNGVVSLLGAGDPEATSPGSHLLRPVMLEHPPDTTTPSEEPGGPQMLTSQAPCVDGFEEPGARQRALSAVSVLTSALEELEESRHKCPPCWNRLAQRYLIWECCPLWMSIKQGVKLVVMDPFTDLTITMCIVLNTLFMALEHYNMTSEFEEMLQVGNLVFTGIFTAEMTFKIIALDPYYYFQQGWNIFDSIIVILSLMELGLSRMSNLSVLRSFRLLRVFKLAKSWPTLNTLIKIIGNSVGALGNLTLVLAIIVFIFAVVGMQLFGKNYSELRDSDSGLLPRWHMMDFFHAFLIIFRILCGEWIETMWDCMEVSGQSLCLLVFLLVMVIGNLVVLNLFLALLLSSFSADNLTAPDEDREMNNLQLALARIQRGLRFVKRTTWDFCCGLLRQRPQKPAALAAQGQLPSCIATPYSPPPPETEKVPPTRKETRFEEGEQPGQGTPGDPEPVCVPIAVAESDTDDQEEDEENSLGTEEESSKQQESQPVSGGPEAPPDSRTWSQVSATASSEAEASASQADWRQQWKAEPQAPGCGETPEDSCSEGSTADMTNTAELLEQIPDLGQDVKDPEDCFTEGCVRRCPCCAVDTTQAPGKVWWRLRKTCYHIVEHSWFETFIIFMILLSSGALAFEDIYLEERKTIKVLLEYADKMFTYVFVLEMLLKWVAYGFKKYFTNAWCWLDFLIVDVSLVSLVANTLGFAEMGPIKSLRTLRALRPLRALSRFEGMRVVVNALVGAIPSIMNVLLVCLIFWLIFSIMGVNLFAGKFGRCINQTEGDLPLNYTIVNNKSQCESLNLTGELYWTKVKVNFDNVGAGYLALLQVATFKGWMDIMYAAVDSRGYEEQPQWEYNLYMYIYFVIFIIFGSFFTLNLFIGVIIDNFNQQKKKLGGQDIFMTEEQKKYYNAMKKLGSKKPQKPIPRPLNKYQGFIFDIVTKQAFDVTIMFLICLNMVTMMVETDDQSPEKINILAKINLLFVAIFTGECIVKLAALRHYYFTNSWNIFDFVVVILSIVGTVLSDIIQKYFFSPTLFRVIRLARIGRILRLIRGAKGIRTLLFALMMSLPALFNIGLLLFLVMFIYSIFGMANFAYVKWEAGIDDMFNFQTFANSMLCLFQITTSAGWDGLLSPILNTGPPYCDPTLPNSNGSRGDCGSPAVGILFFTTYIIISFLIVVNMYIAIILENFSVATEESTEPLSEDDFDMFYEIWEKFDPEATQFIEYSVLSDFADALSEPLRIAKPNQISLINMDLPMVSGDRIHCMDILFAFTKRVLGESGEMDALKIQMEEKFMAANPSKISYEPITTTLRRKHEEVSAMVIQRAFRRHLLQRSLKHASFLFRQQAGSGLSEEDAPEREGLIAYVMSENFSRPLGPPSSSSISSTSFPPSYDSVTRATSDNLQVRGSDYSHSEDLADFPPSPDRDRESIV
# Experiment Summary: Peak INa screening assay (tonic block and use-dependent block)
# Type: cell-based
# Condition Summary: tonic block of Peak INa, 0.1 Hz, holding -100 mV, read-out: Peak TB 3 uM
Numbers only, in %.

Worked examples follow.
Molecule	Assay Target	inhibition at 3 µM (%)
Cc1cc2onc(OCc3ncccn3)c2cc1-c1ccc(C(F)(F)F)cc1F [Example 28]	wild-type human cardiac sodium channel, hNav1.5 (Homo sapiens, UniProt Q14524)	21.6
FC(F)(F)Oc1cccc(-c2ccc3onc(OCc4ncccn4)c3c2)c1 [Example 10]	wild-type human cardiac sodium channel, hNav1.5 (Homo sapiens, UniProt Q14524)	16.4
OCC1(COc2noc3ccc(-c4ccc(OC(F)(F)F)cc4)cc23)COC1 [Example 97]	wild-type human cardiac sodium channel, hNav1.5 (Homo sapiens, UniProt Q14524)	26.5
CCn1ccnc1COc1noc2ccc(-c3ccc(OC(F)(F)F)cc3)cc12 [Example 47]	wild-type human cardiac sodium channel, hNav1.5 (Homo sapiens, UniProt Q14524)	21.7
CC(=O)N1CCOC[C@H]1COc1noc2ccc(-c3ccc(OC(F)(F)F)cc3)cc12 [Example 115]	wild-type human cardiac sodium channel, hNav1.5 (Homo sapiens, UniProt Q14524)	19.8

Q: State the recorded inhibition at 3 µM for this entry: O=C1CCCN1CCOc1noc2c(F)cc(-c3ccc(OC(F)(F)F)cc3)cc12 [Example 80]
Result: 17.3

---

# Assay Target: wild-type human cardiac sodium channel, hNav1.5 (Homo sapiens)
# Experiment Summary: Peak INa screening assay (tonic block and use-dependent block)
# Type: cell-based
# Condition Summary: use-dependent block of Peak INa, 3 Hz, pulse 50, read-out: Peak UDB 3 Hz 3 uM
Provide the reported inhibition at 3 µM of each item.

Worked examples follow.
Compound	inhibition at 3 µM
FC(F)(F)Oc1ccc(-c2ccc3onc(-n4cncn4)c3c2)cc1 [Example 136]	< 5%
Cc1cccnc1COc1noc2ccc(-c3ccc(OC(F)(F)F)cc3)cc12 [Example 93]	< 5%
Cn1cncc1COc1noc2ccc(-c3ccc(OC(F)(F)F)cc3)cc12 [Example 50]	< 5%

For every record below, what is its inhibition at 3 µM?
1. N#CCOc1noc2ccc(-c3ccc(OC(F)(F)F)cc3)cc12 [Example 103]
2. FC(F)(F)Oc1ccc(-c2ccc3onc(OCCN4CCOCC4)c3c2)cc1 [Example 78]
3. Cc1cc2onc(OCc3ncccn3)c2cc1-c1ccc(OC(F)(F)F)cc1 [Example 26]
4. FC(F)(F)Oc1ccc(-c2ccc3onc(OCCn4cncn4)c3c2)cc1 [Example 58]

Result:
< 5%
19.5%
< 5%
< 5%

For every record below, what is its inhibition at 3 µM?
1. Cc1cc(COc2noc3ccc(-c4ccc(OC(F)(F)F)cc4)cc23)on1 [Example 102]
2. CC(C)[C@@H](COc1noc2ccc(-c3ccc(OC(F)(F)F)cc3)cc12)N1CCCC1=O [Example 120]

Result:
7.7%
6.6%

---

# Assay Target: wild-type human cardiac sodium channel, hNav1.5 (Homo sapiens, UniProt Q14524)
# Experiment Summary: Late INa screening assay (QPatch whole cell patch clamp, Tefluthrin-induced late current)
# Type: cell-based
# Condition Summary: 0.3 uM; HEK293 hNav1.5; percent block of late INa
Provide the reported inhibition at 0.3 µM of each item.
One number for each entry, in %.

Worked examples follow.
Query Smiles	Assay Target	inhibition at 0.3 µM (%)
CC(C)c1nnc(COc2noc3ccc(-c4ccc(OC(F)(F)F)cc4)cc23)o1	wild-type human cardiac sodium channel, hNav1.5 (Homo sapiens, UniProt Q14524)	31.7
CC(=O)N1CCC[C@H]1COc1noc2ccc(-c3ccc(OC(F)(F)F)cc3)cc12	wild-type human cardiac sodium channel, hNav1.5 (Homo sapiens, UniProt Q14524)	25.3

For every record below, what is its inhibition at 0.3 µM?
1. O=C1CCCN1CCOc1noc2ccc(-c3ccc(OC(F)(F)F)cc3)cc12
2. Fc1cccnc1COc1noc2ccc(-c3ccc(OC(F)(F)F)cc3)cc12
3. FC(F)(F)Oc1ccc(-c2ccc3onc(-n4cnc(C(F)(F)F)c4)c3c2)cc1
4. COc1ccnc(CNc2noc3ccc(-c4ccc(OC(F)(F)F)cc4)cc23)n1
5. Cc1cc(-c2ccc(OC(F)(F)F)cc2)cc2c(OCc3cn(C)nn3)noc12
6. Cc1nccnc1COc1noc2ccc(-c3ccc(OC(F)(F)F)cc3)cc12
7. FC(F)(F)Oc1ccc(-c2ccc3onc(NCc4ncco4)c3c2)cc1
8. CC(C)[C@@H](COc1noc2ccc(-c3ccc(OC(F)(F)F)cc3)cc12)N1CCCC1=O

Result:
1. 43.7
2. 35.1
3. 61.7
4. 50.9
5. 18.4
6. 19.8
7. 37.9
8. 35.8

For every record below, what is its inhibition at 0.3 µM?
1. O=C(COc1noc2ccc(-c3ccc(OC(F)(F)F)cc3)cc12)N1CCCC1
2. Cc1nnc(COc2noc3c(F)cc(-c4ccc(OC(F)(F)F)cc4)cc23)o1
3. CC(=O)N1CCOC[C@H]1COc1noc2ccc(-c3ccc(OC(F)(F)F)cc3)cc12
4. Cc1ccnc(COc2noc3ccc(-c4ccc(OC(F)(F)F)cc4)cc23)n1
5. FC(F)(F)c1ccc(-c2ccc3onc(OCc4ncccn4)c3c2)cc1
6. CC(C)(C)c1cn(-c2noc3ccc(-c4ccc(OC(F)(F)F)cc4)cc23)cn1
7. Cc1nccn1CCOc1noc2ccc(-c3ccc(OC(F)(F)F)cc3)cc12
8. CN1CCC[C@H]1COc1noc2ccc(-c3ccc(OC(F)(F)F)cc3)cc12

Result:
[39, 47, 23.5, 38.2, 36.4, 35.9, 17, 41.7]

Data origin, for the record: patent US9416115B2
